Measured values drawn from patent US20190309059A1 for this set.

Molecular target: his-labeled human IL-13 (immunogen A) (human) (UniProt P35225)
Assay: FACS blocking assay: antibody titrated with biotin-labeled immunogen A (20 ng/mL); blocked partner IL-13Ra2 on HEK293 clone 1A1; Alexa 488 streptavidin
result_type: IC50 (read off the curve) (nM)
Supply the numeric figure in nM, leaving out any unit text.

binder | uom | quantitative_readout
70F10A10 (lead antibody, mouse hybridoma) (antibody, V domains shown) VH: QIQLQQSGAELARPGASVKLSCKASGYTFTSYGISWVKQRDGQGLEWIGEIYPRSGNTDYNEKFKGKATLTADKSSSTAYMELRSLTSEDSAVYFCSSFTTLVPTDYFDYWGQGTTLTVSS VL: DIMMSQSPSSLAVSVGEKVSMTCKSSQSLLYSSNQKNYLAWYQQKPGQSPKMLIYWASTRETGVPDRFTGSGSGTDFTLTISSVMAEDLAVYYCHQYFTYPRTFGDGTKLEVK | nM | 0.1

Let's switch to this binder now.
Lab book: IC50 (read off the curve) of c29D9H8 (mouse-human chimeric IL-13 antibody) (antibody, V domains shown) VH: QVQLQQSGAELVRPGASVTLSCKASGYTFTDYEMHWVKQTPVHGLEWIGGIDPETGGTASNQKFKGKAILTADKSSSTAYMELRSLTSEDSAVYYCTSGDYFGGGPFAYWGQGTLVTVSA VL: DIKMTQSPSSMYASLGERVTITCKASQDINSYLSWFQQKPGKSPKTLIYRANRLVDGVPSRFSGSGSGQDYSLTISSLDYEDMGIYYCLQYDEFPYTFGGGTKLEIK noted as 0.2
